Where do these numbers come from? They come from patent US8476197B2.

Below, each of the compounds is paired with its reported Log P value.
# Reported conditions: pH 2.7
Marks after values point to notes of the source that are not given here.

Guide cases for Log P, answers given:
CCOC(=O)C(C#N)=C(NC(C)c1ccccn1)c1c(C)nn(C)c1Cl (racemic): 2.49^[a]
COC(=O)C(C#N)=C(NC(C)(C)c1ccccc1Cl)c1cccnc1Cl: 3.15^[a]
CCOC(=O)C(C#N)=C(NC(CC)c1cccc(Cl)c1)c1cn(C)nc1C(F)F (racemic): 3.87^[a]

Turning now to a further compound:
So for CCOC(=O)C(C#N)=C(NC(C)C(=O)NC)c1cccnc1C(F)F (stereo not drawn) , the logged Log P turned out to be 1.62^[a]

* * *

# Reported conditions: pH 2.7
Marks after values point to notes of the source that are not given here.
Property label: Log P

Guide cases for Log P, answers given:
COCC(C)NC(=C(C#N)C(=O)OC)c1sc(C)nc1C(F)(F)F (racemic): 2.75^[a]
CCOC(=O)C(C#N)=C(NC(C)c1nn(C)c(=O)n1C)c1cc(Cl)ncc1Cl (racemic): 3.76^[a]
CCOC(=O)C(C#N)=C(NC(C(=O)OC)C(C)C)c1cn(C)nc1C(F)(F)F (stereo not shown): 3.09^[a]
CCOC(=O)C(C#N)=C(Nc1ccccc1OC(C)C)c1cccnc1Cl: 3.8^[a]
CCOC(=O)C(C#N)=C(NC(C)C1CCC1)c1c(CC)nn(C)c1Cl (stereo not shown): 3.94^[a]

So for CCOC(=O)C(C#N)=C(NC(C)C(C)C)c1sc(C)nc1C(F)(F)F (stereo not shown) , the logged Log P turned out to be 3.95^[a]

So for CCCCCC(C)NC(=C(C#N)C(=O)OCC)c1sccc1C(F)(F)F (stereo not shown) [Compound 847] , the logged Log P turned out to be 5.05^[a]

So for CCOC(=O)C(C#N)=C(NC1CCCC1OC)c1cccnc1Cl (stereo not shown) , the logged Log P turned out to be 2.96^[a]

So for `CCOC(=O)C(C#N)=C(NC1CCC1)c1ccncc1Br` , the logged Log P turned out to be 2.9^[a]

So for CCOC(=O)C(C#N)=C(NC(c1cncnc1C)C(C)C)c1cccnc1Cl (racemic) , the logged Log P turned out to be 2.28^[a]

So for COC(=O)C(C#N)=C(NC(C)C(=O)OC)c1sc(C)nc1C(F)(F)F (stereo not shown) , the logged Log P turned out to be 2.62^[a]

So for CCOC(=O)C(C#N)=C(NC(C)c1cc(Cl)ccn1)c1cccnc1Cl (stereo not shown) , the logged Log P turned out to be 3^[a]

So for CCOC(=O)C(C#N)=C(NC(C)c1cccc(Cl)n1)c1cccnc1Cl (stereo not shown) , the logged Log P turned out to be 3.2^[a]

So for COC(=O)C(C#N)=C(NC(C)C(N)=O)c1sc(C)nc1C(F)(F)F (racemic) [Compound 668] , the logged Log P turned out to be 1.78^[a]

So for CCOC(=O)C(C#N)=C(NC(c1cc2ccccc2s1)C(F)(F)F)c1cn(C)nc1C(F)(F)F (racemic) , the logged Log P turned out to be 4.46^[a]

* * *

# Reported conditions: pH 2.7
Marks after values point to notes of the source that are not given here.
Below, each of the compounds is paired with its reported Log P value.

Guide cases for Log P, answers given:
CCOC(=O)C(C#N)=C(NCc1nccs1)c1sccc1Br: 2.67^[a]
C=CCNC(=O)C(C#N)=C(NC(C)C(C)C)c1cn(C)nc1C(F)F (stereo not shown) [Compound 1007]: 2.9^[a]
CCOC(=O)C(C#N)=C(NC(C)C(C)OC)c1cc(Cl)sc1Cl (stereo not shown): 4.02^[a]
CCOC(=O)C(C#N)=C(NC(C)c1nc(C)c(C)s1)c1sccc1C(F)(F)F (stereo not shown): 3.92^[a]
CCOC(=O)C(C#N)=C(Nc1ccncc1C)c1cccnc1Cl: 1.45^[a]

So for CCCCCCC(C)NC(=C(C#N)C(=O)OCC)c1sccc1C(F)(F)F (racemic) , the logged Log P turned out to be 5.48^[a]

So for `COC(=O)C(C#N)=C(NC1(c2ccc(Cl)cc2)CC1)c1cccnc1Cl` , the logged Log P turned out to be 3.19^[a]
